- TARGET: Short transient receptor potential channel 4 (Mus musculus) (UniProt Q9QUQ5)
- Sequence (Q9QUQ5 whole entry, looked up): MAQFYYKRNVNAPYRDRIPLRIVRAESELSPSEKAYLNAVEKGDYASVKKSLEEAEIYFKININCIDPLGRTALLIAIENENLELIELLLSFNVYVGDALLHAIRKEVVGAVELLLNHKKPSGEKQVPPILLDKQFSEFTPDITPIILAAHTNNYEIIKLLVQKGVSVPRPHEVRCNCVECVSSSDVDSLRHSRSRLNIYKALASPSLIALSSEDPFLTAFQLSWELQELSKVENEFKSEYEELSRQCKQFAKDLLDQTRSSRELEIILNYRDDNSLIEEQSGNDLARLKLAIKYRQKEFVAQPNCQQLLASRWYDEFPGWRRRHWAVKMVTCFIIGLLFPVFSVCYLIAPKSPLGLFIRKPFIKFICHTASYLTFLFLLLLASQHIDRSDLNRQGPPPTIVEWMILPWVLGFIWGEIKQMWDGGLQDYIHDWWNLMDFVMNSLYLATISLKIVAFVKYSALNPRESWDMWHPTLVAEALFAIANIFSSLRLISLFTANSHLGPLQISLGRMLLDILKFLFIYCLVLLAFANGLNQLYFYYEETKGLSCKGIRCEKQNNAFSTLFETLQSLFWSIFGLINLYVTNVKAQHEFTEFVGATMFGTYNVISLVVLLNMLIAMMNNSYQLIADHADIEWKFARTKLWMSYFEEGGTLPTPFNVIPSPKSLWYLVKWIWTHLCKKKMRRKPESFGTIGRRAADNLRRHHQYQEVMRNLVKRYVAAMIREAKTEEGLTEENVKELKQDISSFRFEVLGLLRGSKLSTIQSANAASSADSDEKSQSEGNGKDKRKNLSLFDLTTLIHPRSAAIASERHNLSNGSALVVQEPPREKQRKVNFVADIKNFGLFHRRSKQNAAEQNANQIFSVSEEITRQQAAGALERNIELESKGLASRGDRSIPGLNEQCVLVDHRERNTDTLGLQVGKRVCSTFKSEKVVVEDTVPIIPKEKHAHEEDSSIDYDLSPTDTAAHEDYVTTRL
- ASSAY_COMMENT: blockers of DAMGO-evoked TRPC4 calcium flux – cell-based, Fluo4, HEK293 TRPC4beta/mu-opioid, confirmation (AID 2636)
- RUN_CONDITIONS: at 10 µM
Calls of active or inactive are those of the source.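 Rule for the calls: active = calcium signal cut by more than 3 SD below the full-agonist control yet still positive, in both repeats and the earlier primary screen; inactive = the rest.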
Classes used: yes (active), no (inactive)

COMPOUND | CAT
Clc1cccc(COn2c(-c3ccc(Cl)cc3Cl)nc3ncccc32)c1 | yes
CC(=O)c1ccc(N2CCN(C(=O)CCS(=O)(=O)c3ccc4c(c3)NC(=O)CS4)CC2)cc1 | no
Cc1cc(C)nc(NC(N)=NC2CCCCC2)n1 | yes
Cc1ccc(C(=O)C2=C(O)C(=O)N(Cc3cccnc3)C2c2ccc(Cl)c(Cl)c2)o1 (stereo not given) | yes
Cc1ccc(/C=N/NC(=O)CSc2nc3ccccc3n2Cc2ccccc2)o1 | no
